Source of measurements: the DeepSol protein solubility set

Assay: soluble on expression in E. coli; label from the status in PepcDB or PDB records
Assay readout: soluble on expression in E. coli

Example cases with answers are listed next.
[[record]]
entry_sequence = "MSLKLTGEESDTLRKIVLEECLPNQQQNQNPSPCAEVKPNAGYVVLKDLNGPLQYLLMPTYRINGTESPLLTDPSTPNFFWLAWQARDFMSKKYGQPVPDRAVSLAINSRTGHTQNHFHIHISCIRPDVREQLDKNLANISSRWLPLPGGLRGHEYLARRVTESELVQRSPFMMLAEEVPEAREHMGSYGLAMVRQSDNSFVLLATQRNLLTLNRASAEEIQDHECEILREGHHHHHH"
assay_readout = "soluble on expression in E. coli"
observed_result = "soluble"

[[record]]
entry_sequence = "MKKALPNTKVTVKLRRSNYKEEWYLIIESYPVYKRGSKRASRVVESINRTISTPIWDKSSIARILPDGTFNYKPKRDLNGIIQCRSTIDQEACIYADNVRKLRQHEYDSAILYTDKENEIAAQNERSEQDFIKYFNRIISTRHPNSSDSIIVNWRRVGELLKMYSQGQPIPFKAISVKLLEDIKMFLLRAPMGGNKKGTISQNTASTYFSILKAGLKQAFIDEYLTVDISAKVKGITNIEKPRVALTMNEVQMLVDTPCKDDVLKRAFLFSILTGLRHSDIQTLKWKQIQQTSKGTWQAVVIQQKTKRPDYKPVIQQALQLCGIRPDDDEALVFEGLTDASWISRPLKVWIEASGIKKHITF"
assay_readout = "soluble on expression in E. coli"
observed_result = "not soluble"

[[record]]
entry_sequence = "MSLLCLFAVFAFSCNEEMERLLTDDYPESGTEYTTGHVLMVVIDGASGIAVNEAYNTRKAPVIRSMTDKSLFTFYGLADNEEGVSKERGWANLLTGTTKNGLDVNQGIDELETPSFLQRLKEADENLKVSFYSSDTEFFGAFGSVANTKRKTSADSETADALIAEINGETISDIVVAQFGGVQQTGEQYGFWSNETTPTSEVIDAIYNVDAFIGKIMKALEARSRYVQENWLVVITSSYGGVYEGNVTPASEGHHHHHH"
assay_readout = "soluble on expression in E. coli"
observed_result = "soluble"

[[record]]
entry_sequence = "GPGSMIIWAVGTTNKAKLDSVDIAVRMCFPSYQHDVRPVAVLSIVRAQPISAEESQQGAQHRAHEALSLVPEAHYGVGLEGGLEKISDRWFECGWMYVIERSTGRCGIGSSARFEMSQKLMSKILDEGKELAEVMDEMTGETDVRSGQGAMGVLTAGYLNRAESYSHGLIFALAPFLSDHKYWD"
assay_readout = "soluble on expression in E. coli"
observed_result = "not soluble"


Hi! Can you tell me soluble on expression in E. coli for each of these sequences?
1. DMGESVKIIDLARQMITLSGLKPNTPEQPDGDIEILITGLRPGEKLYEELLIGDNVRKTGHPRIMTANETMLPWHELSALLDRIRAACDRYDQQAIRT
2. MSLIEPDHPQLSIGQQCKLLSISRSSFYYTPKGETDQNLSLMRQIDEQFLETPFFGVRQMTWHLRNEHHLVNEKRIRRLMRLMGLMPIYQKPNNTSRPGRGHKTYPYLLRGLRVDRPNQVWCSDITYLPMRRGFLYLVAIMDWHTRKVLAWRISNTLEADFCVEALNEAIHKFGPPEIMNTDQGSQFTSFAWTDRLRRSGVRISMDGKGRFLDNIFIERLWRTLKYECVYLHAWETGSEAKAGIRKWMTFYNSASLRPSFYVVEGNRFCEGHHHHHH

1. not soluble
2. not soluble
